System: Clostridium perfringens
Type: cell-based
Conditions: strain of avian origin
measured.metric: MBC (%)
The reply should contain only the number, in %.

| compound | tested.on | MBC, % |
| --- | --- | --- |
| Cc1cc(O)c(C(C)C)cc1S(=O)(=O)O | Clostridium perfringens | 0.375 |
| Cc1cc(S(=O)(=O)[O-])c(C(C)C)cc1O.[K+] [IB546, Carvacrol Sulfonate Potassium Salt] | Clostridium perfringens | 0.75 |
| Cc1cc(S(=O)(=O)O)c(C(C)C)cc1O | Clostridium perfringens | 0.75 |

In: Specify MBC for Cc1cc(O)c(C(C)C)cc1S(=O)(=O)[O-].[K+] [IB575, Thymol Sulfonate Potassium Salt] and stop.
Out: 2.5

----------
Tested on: Escherichia coli
Assay type: cell-based
measured.metric: MIC

Recorded MIC, per entry:
| compound | MIC |
| --- | --- |
| CCCCCCCCCCCC(=O)Oc1cc(C)ccc1C(C)C [IB570, Thymol Laurate] | >10% |
| Cc1cc(O)c(C(C)C)cc1S(=O)(=O)[O-].[K+] [IB575, Thymol Sulfonate Potassium Salt] | 2.5% |
| Cc1ccc(C(C)C)c(O)c1 [Thymol, reference compound] | ≤0.093% |
| CCCCCCCCCCCC(=O)OC1CC(C)CCC1C(C)C (centres unmarked) [IB579, Menthol Laurate] | >10% |

# evaluate next
In: Determine from records and report MIC for Cc1cc(S(=O)(=O)O)c(C(C)C)cc1O [IB540, Carvacrol Sulfonic Acid]
Out: 0.75%

----------
Listed next: entries and their corresponding MIC.
Test system: Escherichia coli
Assay type: cell-based

| compound | tested.on | MIC |
| --- | --- | --- |
| Cc1ccc(C(C)C)c(OC(=O)CCC(=O)Oc2cc(C)ccc2C(C)C)c1 [Succinate] | Escherichia coli | ≤0.093% |

In: Provide one value: measured MIC of CCCCCCCCCCCC(=O)Oc1cc(C(C)C)ccc1C [IB536, Carvacrol Laurate]
Out: >10%

In: Give MIC for the following compound: Cc1ccc(C(C)C)cc1O [Carvacrol, reference compound]
Out: ≤0.093%

----------
Tested on: Clostridium perfringens
Type: cell-based
Details: strain of avian origin
measured.metric: MBC

| molecule | MBC |
| --- | --- |
| Cc1ccc(C(C)C)cc1O [Carvacrol, reference compound] | ≤0.093% |

In: Annotate the molecule Cc1ccc(C(C)C)c(OC(=O)CCC(=O)Oc2cc(C)ccc2C(C)C)c1 [Succinate] with its measured MBC.
Out: ≤0.093%

In: Return MBC (reported value) for this molecule: CCCCCCCCCCCC(=O)Oc1cc(C(C)C)ccc1C [IB536, Carvacrol Laurate]
Out: >10%

In: Note MBC for the molecule shown: CCCCCCCCCCCC(=O)Oc1cc(C)ccc1C(C)C [IB570, Thymol Laurate]
Out: >10%

In: Give the value of MBC reported for the following: Cc1ccc(C(C)C)c(O)c1 [Thymol, reference compound]
Out: ≤0.093%

In: Recall and state the measured MBC for CCCCCCCCCCCC(=O)OC1CC(C)CCC1C(C)C (stereo not drawn) [IB579, Menthol Laurate] .
Out: >10%
